# reported inhibition at 20000 µM; entries follow
- Assayed system: UniProtKB E9AFX2
- Test description: biochemical
- Assay type: biochemical
- Stated conditions: read-out: 20mM inhibition LmjIPCS

Completed entries (count: 5):
CC1(C)[C@@H](O)CC[C@]2(C)[C@H]3C(=O)C=C4[C@H]5C[C@@](C)(C(=O)O)CC[C@]5(C)CC[C@@]4(C)[C@]3(C)CC[C@@H]12: 7%
NC(=O)c1ncn([C@@H]2O[C@H](CO)[C@@H](O)[C@H]2O)c1O [MIZORIBINE]: 6.58%
CS(=O)(=O)Nc1ccc([N+](=O)[O-])cc1Oc1ccccc1 [NIMESULIDE]: 11%
O=C(O)c1cc(O)c2cccc(O)c2n1 [X[…]]: 8%
COc1cc(C2Oc3cc([C@H]4Oc5cc(O)cc(O)c5C(=O)[C@@H]4O)ccc3OC2CO)ccc1O (stereo partly drawn) [SILIBININ]: 2.14%

Item CCOC(=O)N1CCC(=C2c3ccc(Cl)cc3CCc3cccnc32)CC1 [LORATADINE] has what recorded inhibition at 20000 µM?
21%

---

The following compounds are shown together with reported inhibition at 20000 µM values.
- Assayed system: LmjIPCS (inositol phosphorylceramide synthase from L. major) (Leishmania major)
- Sequence (E9AFX2 1-338): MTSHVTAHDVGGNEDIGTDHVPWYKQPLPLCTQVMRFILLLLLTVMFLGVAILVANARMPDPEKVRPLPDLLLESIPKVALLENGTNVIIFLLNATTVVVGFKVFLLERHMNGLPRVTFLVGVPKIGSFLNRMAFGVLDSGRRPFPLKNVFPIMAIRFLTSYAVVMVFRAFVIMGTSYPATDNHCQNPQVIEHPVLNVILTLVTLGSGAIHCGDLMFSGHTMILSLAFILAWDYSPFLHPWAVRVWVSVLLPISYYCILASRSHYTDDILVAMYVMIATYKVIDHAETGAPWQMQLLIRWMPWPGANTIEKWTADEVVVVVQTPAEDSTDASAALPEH
- Test description: biochemical
- Assay type: biochemical
- Stated conditions: read-out: 20mM inhibition LmjIPCS

// known answers, use as guide
C=CCc1ccc2c(c1)OCO2 [SAFROLE]: 1.28%
CC(C)(S)[C@@H](N)C(=O)O [PENICILLAMINE]: 20%

Looking for the measured inhibition at 20000 µM of CN(C)C(=O)Oc1ccc[n+](C)c1 [PYRIDOSTIGMINE BROMIDE] , can you help?
-5.55%

---

- Assayed system: LmjIPCS (inositol phosphorylceramide synthase from L. major) (Leishmania major, UniProt E9AFX2)
- Test description: biochemical
- Type: biochemical
Assay metric: 20mM inhibition LmjIPCS (%)
Your answer is read as %, so omit the unit and give the number.

Below, each entry is followed by its recorded 20mM inhibition LmjIPCS result.
CC(NCCc1ccc(O)cc1)C(O)c1ccc(O)cc1 (centres unmarked): 58
CON: 12
COc1cc2nc(N(C)CCCNC(=O)C3CCCO3)nc(N)c2cc1OC (centres unmarked): 8

Look up 20mM inhibition LmjIPCS for this molecule: C=C[C@H]1C[N@@]2CC[C@H]1C[C@H]2[C@H](O)c1ccnc2ccc(OC)cc12
70

Which measured 20mM inhibition LmjIPCS value corresponds to CCCCCCCCCCCCCCCC[N+](C)(C)C ?
75

For the molecule COc1cc(NC(C)CCCN)c2ncccc2c1 (centres unmarked) , what 20mM inhibition LmjIPCS is on record?
69

// 20mM inhibition LmjIPCS lookup, key: COc1cc2c(cc1OC)-c1cc3ccc(OC)c(OC)c3c[n+]1CC2
8

May I ask what 20mM inhibition LmjIPCS has been recorded for NCCCCCCNS(=O)(=O)c1cccc2c(Cl)cccc12 ?
59

I would be grateful if you could share the reported 20mM inhibition LmjIPCS for N[C@H](C(=O)O)[C@@H]1CC(Cl)=NO1 .
39

So what does the record say about 20mM inhibition LmjIPCS for CC(CN(C)C)CN1c2ccccc2Sc2ccccc21 (centres unmarked) ?
71

Would you kindly share the measured 20mM inhibition LmjIPCS for NS(=O)(=O)c1cc2c(cc1C(F)(F)F)NC(Cc1ccccc1)NS2(=O)=O (centres unmarked) [BENDROFUMETHIAZIDE] ?
63

Name the reported 20mM inhibition LmjIPCS value associated with the molecule CNC(=N)NCCC[C@H](N)C(=O)O
-2

Would you kindly share the measured 20mM inhibition LmjIPCS for Cc1ccc(/C(=C\CN2CCCC2)c2ccccn2)cc1 ?
42

Data request, read-out 20mM inhibition LmjIPCS, for COCCOC(=O)C1=C(C)NC(C)=C(C(=O)OC(C)C)C1c1cccc([N+](=O)[O-])c1 (centres unmarked)
36

Which 20mM inhibition LmjIPCS is listed for O=C(O)C(O)C(O)C(=O)O.OCc1cccnc1 (centres unmarked) ?
6

State the recorded 20mM inhibition LmjIPCS for this entry: O=C1C=CC(=O)c2c(O)cccc21
48

I would be grateful if you could share the reported 20mM inhibition LmjIPCS for Cc1cccc(N(C)C(=S)Oc2ccc3ccccc3c2)c1 [TOLNAFTATE] .
62

# input molecule: Cc1ccc(-c2cc(C(F)(F)F)nn2-c2ccc(S(N)(=O)=O)cc2)cc1 ; wanted: its 20mM inhibition LmjIPCS
51

---

- Assayed system: LmjIPCS (inositol phosphorylceramide synthase from L. major) (Leishmania major, UniProt E9AFX2)
- Sequence (E9AFX2 1-338): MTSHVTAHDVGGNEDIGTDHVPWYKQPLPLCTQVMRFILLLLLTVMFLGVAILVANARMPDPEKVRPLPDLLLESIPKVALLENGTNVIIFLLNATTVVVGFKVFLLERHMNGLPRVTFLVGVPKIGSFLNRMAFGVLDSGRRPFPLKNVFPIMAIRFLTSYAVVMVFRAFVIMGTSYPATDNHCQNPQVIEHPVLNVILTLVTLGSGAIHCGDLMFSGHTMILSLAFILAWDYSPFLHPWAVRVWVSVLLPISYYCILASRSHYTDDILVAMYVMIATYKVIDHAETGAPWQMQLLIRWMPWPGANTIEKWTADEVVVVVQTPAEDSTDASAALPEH
- Test description: biochemical
- Assay type: biochemical
- Design: dose or concentration left out as unconfirmed
- Stated conditions: NINDS set screen; read-out: inhibition LmjIPCS
Assay metric: inhibition (%)
# output: bare number, implied unit %

Record excerpt, results attached:
C[C@H]1c2cccc(O)c2C(=O)C2=C(O)[C@]3(O)C(=O)C(C(N)=O)=C(O)[C@@H](N(C)C)[C@@H]3[C@@H](O)[C@@H]21: 30
O=C(O)c1cc(O)c2c(c1)C(=O)c1cc(O)cc(O)c1C2=O: 14
[H]/N=C(\N/C(=N/[H])Nc1ccc(Cl)cc1)NC(C)C [CHLOROGUANIDE]: 28
O=C1CCc2cc(OCCCCc3nnnn3C3CCCCC3)ccc2N1: 14

We now examine a further compound.
Reported inhibition for CC(=O)Nc1ccc(OC(=O)c2ccccc2O)cc1 : what is it?
-0.337

---

inhibition values, listed per item
- Assayed system: LmjIPCS (inositol phosphorylceramide synthase from L. major) (Leishmania major, UniProt E9AFX2)
- Test description: biochemical
- Format: biochemical
- Parameters: dose or concentration left out as unconfirmed
- Stated conditions: read-out: inhibition LmjIPCS
Dear colleague, please return just the value in %, with no unit written.

Example cases with answers are listed next.
N[C@@H](C(=O)N[C@@H]1C(=O)N2C(C(=O)O)=C(Cl)CS[C@H]12)c1ccccc1: 10
Nc1ncnc2c1ncn2[C@@H]1O[C@H](CO)[C@@H](O)[C@@H]1O: 10

# next molecule below
Can you look up the measured inhibition of CC(C)N(CCC(C(N)=O)(c1ccccc1)c1ccccn1)C(C)C (stereo not drawn) [DISOPYRAMIDE] for me?
10

---

- Assayed system: LmjIPCS (inositol phosphorylceramide synthase from L. major) (Leishmania major)
- Test description: biochemical
- Type: biochemical
- Set-up: dose or concentration left out as unconfirmed
- Stated conditions: NINDS set screen; read-out: inhibition LmjIPCS
// values below are reported inhibition
Please respond with the number in % and leave the unit unwritten.

CNC[C@H](O)c1cccc(O)c1 [PHENYLEPHRINE]: 25
COc1c(OC)c2occc2c2oc(=O)ccc12 [PIMPINELLIN]: 18
CN(C)CCOC(=O)C(c1ccccc1)C1(O)CCCC1 (centres unmarked) [CYCLOPENTOLATE]: 16
CC12CCC(CC1)C(C)(C)O2 [CINEOLE]: -13
O=C(CCCCCCCCCCCCC1CCCC1)Nc1ccc(S(=O)(=O)c2ccc(NC(=O)CCCCCCCCCCCCC3CCCC3)cc2)cc1 [CHAULMOSULFONE]: 32
NC(=O)c1cnccn1 [PYRAZINAMIDE]: -17
NCC[C@H](O)C(=O)N[C@@H]1C[C@H](N)[C@@H](O[C@H]2O[C@H](CN)[C@@H](O)[C@H](O)[C@H]2O)[C@H](O)[C@H]1O[C@H]1O[C@H](CO)[C@@H](O)[C@H](N)[C@H]1O [AMIKACIN]: 21
CN1CC(=O)NC1=N [CREATININE]: 15

Quick one: inhibition of O=C1[C@H](CC[C@H](O)c2ccc(F)cc2)[C@@H](c2ccc(O)cc2)N1c1ccc(F)cc1 [EZETIMIBE] ?
23

Entry CC(C)c1nc(N(C)S(C)(=O)=O)nc(-c2ccc(F)cc2)c1/C=C/[C@@H](O)C[C@@H](O)CC(=O)O [ROSUVASTATIN] has what inhibition?
12

Suppose we examine the compound Cc1c(NC(C)C)c(=O)n(-c2ccccc2)n1C [RAMIFENAZONE] ; what inhibition value has been reported?
0.419
